System: HL-60(TB) leukemia
ASSAY_REMARKS: NCI-60 one-dose screen, 48 h (100 = growth as untreated, 0 = no growth, -100 = all killed)
CONDITION_INFO: 10 µM unless noted
About 83,000 compounds went through this panel and 20% of them were active in at least one assay; those are over-represented in the sample as a whole.
In this section, each of the compounds is paired with its reported growth.
Return type: number; implicit unit %.

Some compounds with known growth results, for comparison:
O=C1C2(c3ccccc3)C(c3ccccc3)=C(c3ccccc3)C1(c1ccccc1)C1CC=CC12 (stereo not drawn) | 76.3
C[N+]1(CC2CO2)CCCCCC1 (stereo not drawn) | 109

Next compound, growth to be filled in.
Request: Which growth reading was recorded for the compound Cc1ccc(Nc2nnc(-c3ccc(Cl)cc3)o2)c(C)c1 ?
Response: 84.2

---

Test system: HT29 colon
ASSAY_REMARKS: NCI-60 one-dose screen, 48 h
CONDITION_INFO: 10 µM unless noted
Experimental: Growth inhibition of the HT29 human tumor cell line is measured as a screen for anti-cancer activity. Cells are grown in 96 well plates and exposed to the test compound for 48 hours. Compounds are tested at a single concentration, which is 10^-5 M for most compounds. The reported endpoint is percent growth (GI% or GIPRCNT), where numbers from 0 - 100% represent growth inhibition, and numbers from -100% - 0 represent cell death. For example, a value of 40 represents 60% growth inhibition. […]
About 83,000 compounds went through this panel and 20% of them were active in at least one assay; those are over-represented in the sample as a whole. Calls of active or inactive are those of the source. The calls were made as follows: active = growth percent below 10; inactive = the rest.
Permitted responses: 1 for active, 0 for inactive

Request: Assay result, entry CC(/C=N/N=C(N)N)=N\N=C(N)N — outcome?
Response: 0

Request: Query CC12CCC(=O)C=C1C(O)CC1C2CCC2(C)C(O)CCC12 (stereo not given) next
Response: 0

Request: Quick one: CNC(=O)O/N=C(/C)c1ccc(Cl)cc1
Response: 0

Request: Can you handle CNC(=O)Oc1cccc(N(C)C)c1 next?
Response: 0

Request: Same thing, different compound: Nc1cccc2c1Oc1ccccc1O2
Response: 0

---

Tested on: UACC-257 melanoma
ASSAY_REMARKS: NCI-60 one-dose screen, 48 h
CONDITION_INFO: 10 µM unless noted
About 83,000 compounds went through this panel and 20% of them were active in at least one assay; those are over-represented in the sample as a whole. Active and inactive are the calls of the source. How the source made its calls: active means growth percent below 10; inactive means the rest.
Allowed answers: y (active), n (inactive)

A selection of reference data follows.
N#CC1=C(N)Oc2cc3c(cc2C1c1cccs1)OCO3 (stereo not given) | n
CC(=O)O[C@H]1CCC2C3CCC4=C/C(=N/O)CCC4(C)C3CCC21C (stereo not given in full) | n
CNc1ccc(C(=O)CC(O)CCC(C)C2OC(=O)CC(O)CC(=O)CC(O)CC(O)CC(O)CC(O)CC3(O)CC(O)C(C(=O)OC)C(CC(O[C@@H]4O[C@H](C)[C@@H](O)[C@H](N)[C@@H]4O)/C=C/C=C/C=C/C=C/C=C/C=C/C=C/C2C)O3)cc1 (stereo not given in full) | y
CC1(C)N=C(N)N=C(N)N1c1cccc(C(=O)Nc2cccc(S(=O)(=O)F)c2)c1 | n
CCC[CH2][Sn]([CH2]CCC)([CH2]CCC)[O]C(=O)c1ccc(Cl)cc1Cl | y
CC1(C)CC2(CC(C)(C)c3cc(O)c(O)cc32)c2cc(O)c(O)cc21 | n

Request: Look up the recorded call for C[CH2][Sn]([CH2]C)([CH2]C)[NH]S(=O)(=O)c1ccc(C)cc1 in this test.
Response: n

Request: What about this compound? Clc1ccc(SSC(Cl)(Cl)Cl)cc1
Response: n

Request: Thanks! And C=CCc1ccc(OC(=O)Cc2ccccc2)c(OC)c1 ?
Response: n

Request: Entry to check: O=C(N/N=C/c1ccc([N+](=O)[O-])o1)c1cc([N+](=O)[O-])cc([N+](=O)[O-])c1O
Response: n

Request: How about this compound: COc1ccccc1N1CCN(CCc2c[nH]c3cc4c(cc23)OCO4)CC1
Response: n

Request: Another compound: CCN(CC)CCOc1c(C(C)C)cccc1C(C)C
Response: n
